Assign EC50 (pM), A431 lysis with PBMC to each entry below.
# System tested: NKp30 on human NK cells (human) (UniProt O14931)
# Sequence (O14931 19-201): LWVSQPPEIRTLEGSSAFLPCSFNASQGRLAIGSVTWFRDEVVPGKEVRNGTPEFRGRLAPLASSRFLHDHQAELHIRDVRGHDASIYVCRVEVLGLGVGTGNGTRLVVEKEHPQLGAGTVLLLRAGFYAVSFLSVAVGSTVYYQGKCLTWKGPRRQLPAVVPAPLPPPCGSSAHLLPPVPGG
# Assay summary: cell-based or functional assay
The answer is to be given in pM; state only the numeric part.

I am curious: what EC50 (pM), A431 lysis with PBMC value has been reported for ΔB7-H6_S3#11-SEED-PGLALA (bispecific antibody, part only; not given: SEED Fc chains and hu225 Fab, part only) chain, part: DLKVEMMAGGTQITPLNDNVTIFCNIFYSQPLNITLMGITWFWKSLTFDKEVKVFEFWGDHQEAFRPGAIVSPWRLKSGDASLRLPGIQLEEAGEYRCEVIVTPFKAQGTVQLEVVASPAS ? 65.8

I am curious: what EC50 (pM), A431 lysis with PBMC value has been reported for ΔB7-H6_S3#30-SEED-PGLALA (bispecific antibody, part only; not given: SEED Fc chains and hu225 Fab, part only) chain, part: DLKVEMMAGGTQITPLNDNVTIFCNIFYSQPLNITEMGITWFWKSLTFDKEVKVFEFWGDHQEAFRPGAIVSPWRLKSGDASLRLPGIQLEEAGEYRCEVIVTPLKAQGTVQLEVVASPAS ? 176

I am curious: what EC50 (pM), A431 lysis with PBMC value has been reported for ΔB7-H6_S3#16-SEED-PGLALA (bispecific antibody, part only; not given: SEED Fc chains and hu225 Fab, part only) chain, part: DLKVEMMAGGTQITPLNDNVTIFCNIFYSQPLNITLMGITWFWKSLTFDKEVKVFEFYGDHQEAFRPGAIVSPWRLKSGDASLRLPGIQLEEAGEYRCEVVVTPYKAQGTVQLEVVASPAS ? 29.1

I am curious: what EC50 (pM), A431 lysis with PBMC value has been reported for ΔB7-H6_S2#13-SEED-PGLALA (bispecific antibody, part only; not given: SEED Fc chains and hu225 Fab, part only) chain, part: DLKVEMMAGGTQITPLNDNVTIFCNIFYSQPLNITSMGITWFWKSLTFDKEVKVFEFWGDHQEAFRPGAIVSPWRLKSGDASLRLPGIQLEEAGEYRCEVVVTPYKAQGTVQLEVVASPAS ? 171

I am curious: what EC50 (pM), A431 lysis with PBMC value has been reported for ΔB7-H6_S2#3-SEED-PGLALA (bispecific antibody, part only; not given: SEED Fc chains and hu225 Fab, part only) chain, part: DLKVEMMAGGTQITPLNDNVTIFCNIFYSQPLNITTMGITWFWKSLTFDKEVKVFEFWGDHQEAFRPGAIVSPWRLKSGDASLRLPGIQLEEAGEYRCEVVVTPLKAQGTVQLEVVASPAS ? 175

I am curious: what EC50 (pM), A431 lysis with PBMC value has been reported for ΔB7-H6_S3#23-SEED-PGLALA (bispecific antibody, part only; not given: SEED Fc chains and hu225 Fab, part only) chain, part: DLKVEMMAGGTQITPLNDNVTIFCNIFYSQPLNITEMGITWFWKSLTFDKEVKVFEFYGDHQEAFRPGAIVSPWRLKSGDASLRLPGIQLEEAGEYRCEVVVTPYKAQGTVQLEVVASPAS ? 78

I am curious: what EC50 (pM), A431 lysis with PBMC value has been reported for ΔB7-H6_S3#31-SEED-PGLALA (bispecific antibody, part only; not given: SEED Fc chains and hu225 EGFR Fab, part only) chain, part: DLKVEMMAGGTQITPLNDNVTIFCNIFYSQPLNITIMGITWFWKSLTFDKEVKVFEFYGDHQEAFRPGAIVSPWRLKSGDASLRLPGIQLEEAGEYRCEVVVTPLKAQGTVQLEVVASPAS ? 17.5

I am curious: what EC50 (pM), A431 lysis with PBMC value has been reported for ΔB7-H6_S2#2-SEED-PGLALA (bispecific antibody, part only; not given: SEED Fc chains and hu225 Fab, part only) chain, part: DLKVEMMAGGTQITPLNDNVTIFCNIFYSQPLNITSMGITWFWKSLTFDKEVKVFEFWDDHQEAFRPGAIVSPWRLKSGDASLRLPGIQLEEAGEYRCEVVVTPYKAQGTVQLEVVASPAS ? 169
